Origin of values: PubChem BioAssay (NCI)

Test system: UACC-62 melanoma
Test: NCI-60 one-dose screen, 48 h
Details: 10 µM unless noted
About 83,000 compounds went through this panel and 20% of them were active in at least one assay; those are over-represented in the sample as a whole. Activity calls are given as the source filed them. How the source made its calls: active means growth percent below 10; inactive means the rest.
Pick one: active, inactive

CC(=O)c1cc(Nc2cc(C)nc(N)n2)cc(C(C)=O)c1	inactive

Write down the call the test reported for this compound. Item: `Cc1c(C(N)=O)sc2c1c(=O)n(Cc1ccccc1)c1nnc(S(C)(=O)=O)n21` inactive

Write down the call the test reported for this compound. Item: `CC1=C(C)C[C@]2(C(=O)O[C@H]3CCCC[C@@H]32)[S@](=O)C1` inactive

Write down the call the test reported for this compound. Item: `COC(=O)c1c[n+]([O-])ccc1OC` inactive

Write down the call the test reported for this compound. Item: `CC(C)CCCCCOC(=O)c1ccccc1SSc1ccccc1C(=O)OCCCCCC(C)C` inactive

Write down the call the test reported for this compound. Item: CCCCCCCCCCC1OC(C)CC(C)O1 (stereo unspecified) inactive
